- targetOfAssay: human CYP11B1 (Homo sapiens (Human))
- Sequence (P15538 25-503): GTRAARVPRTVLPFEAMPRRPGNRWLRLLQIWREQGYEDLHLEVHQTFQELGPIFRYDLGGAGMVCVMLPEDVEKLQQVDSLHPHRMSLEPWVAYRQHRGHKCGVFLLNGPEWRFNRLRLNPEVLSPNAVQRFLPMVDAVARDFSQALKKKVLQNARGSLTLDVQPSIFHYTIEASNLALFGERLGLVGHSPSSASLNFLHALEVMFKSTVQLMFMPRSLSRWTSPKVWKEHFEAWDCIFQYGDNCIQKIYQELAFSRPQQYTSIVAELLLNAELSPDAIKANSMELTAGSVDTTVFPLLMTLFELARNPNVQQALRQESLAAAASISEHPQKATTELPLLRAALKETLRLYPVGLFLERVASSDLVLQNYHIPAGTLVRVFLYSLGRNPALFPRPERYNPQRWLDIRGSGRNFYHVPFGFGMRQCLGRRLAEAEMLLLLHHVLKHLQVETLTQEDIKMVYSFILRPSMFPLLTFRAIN
- testSummary: G-402 cellular enzyme assay, human CYP11B1 (cortisol release)
- Assay type: cell-based
- cond: G-402 cells expressing human CYP11B1; 1 μM Deoxycortisol; cortisol in supernatant after 16 h
propertyLabel: EC50 (nM)
Write the number in nM without appending the unit.

Illustrative cases are given below, each with its answer.
Cc1ccncc1C(=O)N1CC2(CCN(c3cncc(N4C(=O)c5ccc(Cl)cc5C4(C)C)c3)CC2)C1 [Example 61]
2.11
CC1(C)c2cc(Cl)ccc2C(=O)N1c1cncc(N2CC3(CN(C(=O)c4cnccn4)C3)C2)c1 [Example 38]
2.32
Cc1ocnc1C(=O)N1CC2(C1)CN(c1cncc(N3C(=O)c4ccc(Cl)cc4C3(C)C)c1)C2 [Example 32]
5.37
Cc1nc(C)c(C(=O)N2CC3(C2)CN(c2cncc(N4C(=O)c5ccc(Cl)cc5C4(C)C)c2)C3)o1 [Example 44]
18
Cc1ccncc1C(=O)N1CC2(C1)CN(c1cncc(N3C(=O)c4ccc(Cl)cc4C34CC4)c1)C2 [Example 20]
20

Now for a further compound.
Would you mind telling me what EC50 value was observed for Cn1cncc1C(=O)N1CC2(C1)CN(c1cncc(N3C(=O)c4ccc(C#N)cc4C3(C)C)c1)C2 [Example 13] ?
26.4
